# credit: patent US20040197268A1

- subject of test: Aβ(1-42) (Homo sapiens)
- Construct: Required Aβ(1-42)(California Peptide) was dried from its hexafluoroisopropanol (HFIP) stock solution
- Sequence (P05067 672-713 limits assumed): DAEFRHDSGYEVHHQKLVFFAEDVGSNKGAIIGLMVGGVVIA
- protocol notes: BATYM Assay (Aβ(1-42) aggregation, Thioflavin T fluorescence)
- recorded conditions: Aβ 1-42 final concentration 100 μM, PBS pH 7.4, 37° C., 1 day, ThT fluorescence
pIC50: −log10 of the molar value.
attribute measured: pIC50

> print(dat)
                                    molecule          subject.of.test  reported.result
 1  CCCCN(CCCC)c1ccc(/C=C2\SC(=S)N(CC(=O)NS(C)(=O)=O)C2=O)cc1  Aβ(1-42) (Homo sapiens)             5.54
 2  CCCCCCN(C)c1ccc(/C=C2\SC(=S)N(Cc3nnn[nH]3)C2=O)cc1  Aβ(1-42) (Homo sapiens)             5.71
 3  CCCCCCN(C)c1ccc(/C=C2\SC(=S)N(CCS(=O)(=O)O)C2=O)cc1  Aβ(1-42) (Homo sapiens)             5.76
 4  CCCCCCN(C)c1ccc(/C=C2\SC(=S)N(CC(=O)NS(=O)(=O)C(F)(F)F)C2=O)cc1  Aβ(1-42) (Homo sapiens)             5.77
 5  CCCCN(CCCC)c1ccc(/C=C2\SC(=S)N(CCS(=O)(=O)NC(=O)c3ccccc3)C2=O)cc1  Aβ(1-42) (Homo sapiens)             5.66
 6  CCCCN(CCCC)c1ccc(/C=C2\SC(=S)N(Cc3nnn[nH]3)C2=O)cc1  Aβ(1-42) (Homo sapiens)             5.69
 7  CCCCN(CCCC)c1ccc(/C=C2\SC(=S)N(CC(=O)NS(=O)(=O)c3ccccc3)C2=O)cc1  Aβ(1-42) (Homo sapiens)             5.75
 8  CCCCN(CCCC)c1ccc(/C=C2\SC(=S)N(CC(=O)NS(=O)(=O)c3ccc(F)cc3)C2=O)cc1  Aβ(1-42) (Homo sapiens)             5.62
 9  CCCCCN(CCCCC)c1ccc(/C=C2\SC(=S)N(CCS(=O)(=O)NC(=O)c3ccc(F)cc3)C2=O)cc1  Aβ(1-42) (Homo sapiens)             5.51
10  CCCCCN(CCCCC)c1ccc(/C=C2\SC(=S)N(CC(=O)NS(=O)(=O)C(F)(F)F)C2=O)cc1  Aβ(1-42) (Homo sapiens)             5.71

[1] CCCCCN(CCCCC)c1ccc(/C=C2\SC(=S)N(CC(=O)NS(=O)(=O)c3ccc(F)cc3)C2=O)cc1
[2] O=C(NS(=O)(=O)CCN1C(=O)/C(=C/c2ccc(N3CCC4CCCCC4C3)cc2)SC1=S)c1ccccc1 (stereo not drawn)
Query: Just curious, which one has the larger pIC50 reading, 1 or 2 ? Mark your answer with the label of the selected entry.
Result: 1
